Literature IC50 values, system: TGF-beta receptor type-1 (Homo sapiens).
Lab note: cut-off is 100 nM. Strictly less in IC50 is 1. Exactly 100 nM or more is -1.

- NCC1CC(n2cc(-c3ccccc3)c3c(N)ncnc32)C1 (stereo not shown): -1
- NS(=O)(=O)c1ccc(Nc2cc(Oc3cn(C4CC4)nc3C3CCOCC3)ccn2)cc1: 1
- NC(=O)c1sc2nc(OCC3CCC3)nc(-c3cccc(C(F)(F)F)c3)c2c1N: -1
- CC(C)c1[nH]c(=O)c(-c2cc(Cl)ccc2F)cc1Nc1ccnc(NC(=O)C2CC2)c1: -1
- C[C@H](c1ccc(-c2cnc(N)c(C(=O)N[C@H]3CC[C@H](O)CC3)c2)c(Cl)c1)N1CC2(COC2)C1: -1
- CC(C)(O)c1ccc(Nc2cc(Oc3cc(C(F)(F)F)nn3-c3ccccc3F)ccn2)cn1: 1
- Nc1ncc(-c2ccc([C@]34C[C@H]3CN(CCCN3CCOCC3)C4)cc2)cc1C(=O)N[C@H]1CC[C@H](O)CC1: -1
- CC(C)(O)c1cc(Nc2cc(Oc3cc(C(F)(F)F)nn3-c3ccncc3)ccn2)ccn1: -1
- Cc1cccc2c(Nc3ccnc(Nc4ccc(CN5CCNCC5)cc4)n3)cnnc12: 1
- O=c1[nH]cc(-c2cc(-c3cc(Cl)ccc3F)nc3ncccc23)c2ccncc12: 1
- CN(C)CCOc1cnccc1Nc1cc(-c2cc(Cl)ccc2F)nc2ncccc12: 1
- CC(C)(O)c1cc(Nc2cc(Oc3cc(C(F)(F)F)nn3-c3ccccc3)ccn2)ccn1: 1
- CCNC(=O)c1cnccc1Nc1cc(-c2cccc(C)n2)nc2ncccc12: 1

====

Literature IC50 values, system: UniProtKB P36897.
MEASURED PARAMETER: IC50

- Cc1ccc(-c2nc(OCc3cccnc3)nc3sc(C(N)=O)c(N)c23)o1: 100 to 500 nM
- Cc1cccc2c(Nc3nc(Nc4ccc(N5CCN(C)CC5)cc4)ncc3F)cnnc12: 10 to 100 nM
- CC(C)(O)c1cc(Nc2cc(Oc3cn(C4CCCC4)nc3C3CCOCC3)ccn2)ccn1: 631 nM
- Cc1ccc(-c2nc(O[C@H](C)[C@@H](C)O)nc3sc(C(N)=O)c(N)c23)o1: 100 to 500 nM
- Cc1cccc(-c2nc(CNc3cccc4c3CCNC4)[nH]c2-c2ccc3ncnn3c2)n1: 100 to 1000 nM
- Nc1ncc(-c2ccc([C@]34C[C@H]3CN(CCN3CCOCC3)C4)cc2)cc1C(=O)NC12CCC(O)(CC1)CC2: 3900 nM
- CC(C)n1cc(-c2cncc(-c3ccc4c(c3)CC(=O)N4C)c2F)ccc1=O: > 10000 nM
- Cc1cccc(-c2cc(-n3nc(C)c4cnccc43)c3cccnc3n2)n1: < 100 nM
- Cc1cccc2c(Nc3ccnc(Nc4cccc(CN5CCNCC5)c4)n3)cnnc12: < 10 nM
- Cc1cccc(-c2nc(OCCCn3cccn3)nc3sc(C(N)=O)c(N)c23)n1: < 100 nM
- CC(C)c1[nH]c(=O)c(-c2ccccc2F)cc1Nc1ccncc1C(=O)NC[C@H](C)O: 2000 to 5000 nM
- CC(C)(O)c1cc(Nc2cc(Oc3c(C4CCOCC4)nn4c3CCC4)ccn2)ccn1: 25 nM
- CNc1nccc(Nc2cc(-c3cccc(C)n3)nc3ncccc23)n1: < 100 nM
- Cc1cccc(-c2nc(CNCCc3cccc4ccccc34)[nH]c2-c2ccc3ncnn3c2)n1: 10 to 100 nM
- NC(=O)c1sc2nc(OCC3(CO)CC3)nc(-c3cccc(Cl)c3)c2c1N: 100 to 500 nM
- Cc1cccc2c(Nc3ccnc(Nc4ccc(N5CCN(CCO)CC5)cc4)n3)cnnc12: < 10 nM
- Cn1cc(-c2ccc(-c3cc(-c4ccccc4F)nc4ncccc34)c3ccncc23)cn1: < 1000 nM

====

pIC50: −log10 of the molar value.
Literature pIC50 values, system: UniProtKB P36897.
MEASURED PARAMETER: pIC50

- Fc1ccccc1-c1cc(-c2cncc(-c3cnn(CCCN4CCOCC4)c3)c2)ccn1: > 6.00
- CC(C)(O)c1cc(Nc2cc(Oc3cc(C4CC4)nn3C(C)(C)C)ccn2)ccn1: 7.34
- Fc1ccc(C(F)(F)F)cc1-c1cc(-c2c[nH]c3cnccc23)c2cccnc2n1: > 6.00
- NC(=O)c1sc2nc(OCC3CC3)nc(-c3cccc(Cl)c3)c2c1N: > 7.00
- Cc1cc(-c2cnc3cc(-c4ccc(C5CNCCN5)cc4)ccn23)c2cc(F)ccc2n1 (centres unmarked): 6.14
- NCC(=O)Nc1cc(Nc2cc(-c3cc(Cl)ccc3F)nc3ncccc23)ncn1: > 7.00
- CC(C)(O)c1cc(Nc2cc(Oc3cc(C(F)(F)F)nn3-c3ccc(Cl)cc3)ccn2)ccn1: 6.80
- O=c1c2cnccc2c(-c2cc(-c3cc(Cl)ccc3F)nc3ncccc23)cn1CC(O)CO (centres unmarked): > 6.00
- Cc1cccc(-c2ccccc2-c2ccc3ncc(CN)n3c2)n1: 5.24
- Cc1cccc2c(Nc3ccnc(Nc4cc(F)cc(N5CCOCC5)c4)n3)cnnc12: > 8.00
- Nc1ncc(-c2ccc(N3CCNCC3)cc2F)cc1C(=O)N[C@H]1CC[C@H](O)CC1: 5.40
- CN1C(=O)Cc2cc(-c3cncc(-c4ccc(=O)n(C5CCCCO5)c4)c3)ccc21 (centres unmarked): < 5.00
- Nc1ccc2c(-c3cccc4c(N)nccc34)cc(-c3ccccc3F)nc2n1: > 6.00
- COc1nc(-c2ccc(C)o2)c2c(N)c(C(N)=O)sc2n1: > 7.00
- Cc1c(F)ccc2c(Nc3ccnc(Nc4cccc(N5CCOCC5)c4)n3)cnnc12: > 8.00
- COc1ccc2cnccc2c1-c1cc(-c2ccccc2F)nc2ncccc12: > 6.00
- Nc1ncc(-c2ccc([C@@]34C[C@@H]3CN(CC3COC3)C4)cc2)cc1C(=O)N[C@H]1CC[C@H](O)CC1: 5.03

====

pIC50: −log10 of the molar value.
Literature pIC50 values, system: TGF-beta receptor type-1 (Homo sapiens).
MEASURED PARAMETER: pIC50

- O=C(O)c1cnccc1Nc1cc(-c2cc(Cl)ccc2F)nc2ncccc12: > 7.00
- NC(=O)CCCOc1nc(-c2cccc(Cl)c2)c2c(N)c(C(N)=O)sc2n1: 6.30 to 7.00
- CCc1[nH]c(=O)c(-c2ccc(F)c(Cl)c2)cc1Nc1ccnc2ccncc12: ≥ 6.30
- CC(=O)c1cccc(-c2cnc3sc(NCCc4ccc(S(N)(=O)=O)cc4)nn23)c1: 6.44
- Cc1cc(-c2cc(Nc3cc(N(C)C)ncn3)c3cccnc3n2)c(C)o1: < 5.00

====

Literature pIC50 values, system: TGF-beta receptor type-1 (Homo sapiens).
pIC50: −log10 of the molar value.
MEASURED PARAMETER: pIC50

• CCc1[nH]c(=O)c(-c2ccc(F)c(Cl)c2)cc1Nc1ccnc(NC(C)=O)c1 = ≥ 6.30
• CC#CCN1C[C@H]2C[C@@]2(c2ccc(-c3cnc(N)c(C(=O)N[C@H]4CC[C@H](O)CC4)c3)cc2)C1 = 5.20
• Cn1nccc1-c1cc(Nc2ccncc2)c2cccnc2n1 = 5.00 to 6.00
• Cc1cccc(-c2nc(CNc3cncc(CN)c3)[nH]c2-c2ccc3ncnn3c2)n1 = 5.00 to 6.00
• CCN1CCC(Nc2cc(Nc3cc(-c4cc(Cl)ccc4F)nc4ncccc34)ncn2)CC1 = 5.00 to 6.00
• NC(=O)c1sc2nc(OCC3CCCC3)nc(-c3cccc(Cl)c3)c2c1N = 6.00 to 6.30
• NC(=O)COc1nc(-c2cccc(Cl)c2)c2c(N)c(C(N)=O)sc2n1 = > 7.00
• Nc1ncc(-c2ccc([C@]34C[C@H]3CN(C(CF)CF)C4)cc2)cc1C(=O)N[C@H]1CC[C@H](O)CC1 = 5.00

====

Literature IC50 values, system: TGF-beta receptor type-1 (Homo sapiens, UniProt P36897).
MEASURED PARAMETER: IC50

* CS(=O)(=O)Nc1cc(Nc2cc(-c3cc(Cl)ccc3F)nc3ncccc23)ccn1 | 100 to 1000 nM
* CC(C)n1cc(-c2cncc(-c3cnc4c(c3)CC(=O)N4)c2)ccc1=O | > 10000 nM
* NC(=O)Nc1cc(Nc2cc(-c3cc(F)ccc3F)nc3ncccc23)ccn1 | < 100 nM
* CC(C)(C)n1nc(C2CC2)cc1Oc1ccnc(Nc2ccc(S(N)(=O)=O)cc2)c1 | 94 nM

====

Literature IC50 values, system: TGF-beta receptor type-1 (Homo sapiens, UniProt P36897).
MEASURED PARAMETER: IC50 (nM)

• C[C@@H]1CCCN1Cc1ccc(-c2cnc(N)c(C(=O)N[C@H]3CC[C@](C)(O)CC3)c2)c(Cl)c1 = 10000
• CC(C)N1CCN(c2ccc(-c3cnc(N)c(C(=O)N[C@H]4CC[C@H](O)CC4)c3)c(F)c2)CC1 = 4000
• COc1cc(-c2cnc3sc(NC4CCC(O)CC4)nn23)cc(OC)c1OC (centres unmarked) = 570
• CCn1nc(C(F)(F)F)cc1Oc1ccnc(Nc2ccnc(C(C)(C)O)c2)c1 = 54
